- method_notes: qHTS for induction of synthetic lethality in tumor cells producing 2HG: qHTS for the HT-1080-IDH1KD cell line
- experimental_context: HT-1080 IDH1 knockdown viability, ATP luminescence, 48 h; series mostly up to 46.1 µM
The whole screen tested about 360,000 compounds, of which about 7,500 (2.1%) were called active. Roughly 8% stayed inconclusive and do not appear here. Calls come from the whole dose curve; as a rule, active = well fitted cell-killing curve with a large enough effect; inconclusive = small, poorly fitted or top-dose-only effect, or effect the other way, or another doubt; inactive = no such curve, though single readings can be large or run the other way. The sample holds actives, similar compounds and a random draw of the others, so the mix is not that of the screen.
Your reply should match one of these outcome classes. active, inactive

CC(=O)NCC1=C(c2ccc3ccccc3c2)C[C@@H]2CC[C@H]1N2Cc1ccco1    inactive
O=c1c2ccccc2nc(/C=C/c2ccc(F)cc2)n1-c1ccccc1O    active
COc1ccc(C2C=C(C)Oc3c2c(=O)oc2ccccc32)cc1OC (stereo not given)    inactive
Cc1cccc(NC(=O)OC2CN3CCC2CC3)c1 (stereo not given)    inactive
COc1ccc2c3c1O[C@H]1C[C@@H](O)C=C[C@@]31CCN(C)C2    active
COc1ccc2c(c1O)-c1cccc3c1[C@@H](C2)N(C)CC3    inactive

Prompt: Lab log entry: O=C(NC(=S)N1C[C@H]2C[C@H](C1)c1cccc(=O)n1C2)c1ccc(F)cc1 — outcome as called in the assay?
Response: inactive
